assayed-system: Human Fc (human)
assay-overview: ELISA, negative control
measured-quantity: optical density (OD)
Entry rule: numbers only, all in OD.

QUERY: Endpoint output: optical density of 370_E03 (antibody, V domains shown) VH: EVQLLESGGGLVQPGGSLRLSCAASGFTFSSYGMNWVRQAPGKGLEWVSSINYNGGYKGYADSVKGRFTISRDNSKNTLYLQMNSLRAEDTAVYYCARSANWHDTALDYWGQGTLVTVSS VL: DIQMTQSPSSLSASVGDRVTITCRASQSILTYLNWYQQKPGKAPKLVIYYASNRASGVPSRFSGSGSGTDFTLTISSLQPEDFATYYCQQSYDSPLTFGGGTKVEIK . Value?
RESULT: 0.361

QUERY: Then this binder: 367_G06 (antibody, V domains shown) VH: EVQLLESGGGLVQPGGSLRLSCAASGFTFSSYGMNWVRQAPGKGLEWVSGINYNSGYKSYADSVKGRFTISRDNSKNTLYLQMNSLRAEDTAVYYCARSANWHDTHLDYWGQGTLVTVSS VL: DIQMTQSPSSLSASVGDRVTITCRASQSILTYVNWYQQKPGKAPKLLIYATTSLHSGVPSRFSGSGSGTDFTLTISSLQPEDFATYYCQQSYDTPLTFGGGTKVEIK
RESULT: 0.28

QUERY: Then this binder: 369_C03 (antibody, V domains shown) VH: EVQLLESGGGLVQPGGSLRLSCAASGFTFSSYGMNWVRQAPGKGLEWVSNINYNGGYKSYADSVKGRFTISRDNSKNTLYLQMNSLRAEDTAVYYCARSANWHDTALDYWGQGTLVTVSS VL: DIQMTQSPSSLSASVGDRVTITCRASQSILTYLNWYQQKPGKAPKLVIYAATSRASGVPSRFSGSGSGTDFTLTISSLQPEDFATYYCQQSYDSPLTFGGGTKVEIK
RESULT: 0.323

QUERY: Then this binder: 371_B07 (antibody, V domains shown) VH: EVQLLESGGGLVQPGGSLRLSCAASGFTFDSYSMNWVRQAPGKGLEWVAGINYNGGYTSYADSVKGRFTISRDNSKNTLYLQMNSLRAEDTAVYYCARSANWHDTALDYWGQGTLVTVSS VL: DIQMTQSPSSLSASVGDRVTITCRASQSILTYVNWYQQKPGKAPKLLIYAATSRASGVPSRFSGSGSGTDFTLTISSLQPEDFATYYCQQSYELPLTFGGGTKVEIK
RESULT: 0.308

QUERY: Then this binder: 368_D01 (antibody, V domains shown) VH: EVQLLESGGGLVQPGGSLRLSCAASGFTFSSYGMHWVRQAPGKGLEWVANINYNGGYTSYADSVKGRFTISRDNSKNTLYLQMNSLRAEDTAVYYCARSANWHDTALDYWGQGTLVTVSS VL: DIQMTQSPSSLSASVGDRVTITCRASQSILSYLNWYQQKPGKAPKLVIYAATSRASGVPSRFSGSGSGTDFTLTISSLQPEDFATYYCQQSDSTPLTFGGGTKVEIK
RESULT: 0.319

QUERY: Then this binder: 368_C05 (antibody, V domains shown) VH: EVQLLESGGGLVQPGGSLRLSCAASGFTFDSYGMNWVRQAPGKGLEWVSGINYNSGYTSYADSVKGRFTISRDNSKNTLYLQMNSLRAEDTAVYYCARSANWHDTALDYWGQGTLVTVSS VL: DIQMTQSPSSLSASVGDRVTITCRASQSILSYLNWYQQKPGKAPKLVIYAATSRASGVPSRFSGSGSGTDFTLTISSLQPEDFATYYCQQSDSNPLTFGGGTKVEIK
RESULT: 0.246

QUERY: Then this binder: 373_E01 (antibody, V domains shown) VH: EVQLLESGGGLVQPGGSLRLSCAASGFTFSSYGMNWVRQAPGKGLEWVSGINYNGGYKGYADSVKGRFTISRDNSKNTLYLQMNSLRAEDTAVYYCARSANWHDTALDYWGQGTLVTVSS VL: DIQMTQSPSSLSASVGDRVTITCRASQSIVSYVNWYQQKPGKAPKLLIYAATSRHSGVPSRFSGSGSGTDFTLTISSLQPEDFATYYCQQSYNNPLTFGGGTKVEIK
RESULT: 0.16

QUERY: Then this binder: 369_F02 (antibody, V domains shown) VH: EVQLLESGGGLVQPGGSLRLSCAASGFTFSSYGMNWVRQAPGKGLEWVASINYNSGYKSYADSVKGRFTISRDNSKNTLYLQMNSLRAEDTAVYYCARSANWHDTALDYWGQGTLVTVSS VL: DIQMTQSPSSLSASVGDRVTITCRASQSIVSYLNWYQQKPGKAPKLVIYAATSRASGVPSRFSGSGSGTDFTLTISSLQPEDFATYYCQQSYDTPLTFGGGTKVEIK
RESULT: 0.478

QUERY: Then this binder: 368_D05 (antibody, V domains shown) VH: EVQLLESGGGLVQPGGSLRLSCAASGFTFSSYSMNWVRQAPGKGLEWVSGINYNGGYTSYADSVKGRFTISRDNSKNTLYLQMNSLRAEDTAVYYCARSANWHDTALDYWGQGTLVTVSS VL: DIQMTQSPSSLSASVGDRVTITCRASQSILTYLNWYQQKPGKAPKLVIYAATSRASGVPSRFSGSGSGTDFTLTISSLQPEDFATYYCQQSDDSPLTFGGGTKVEIK
RESULT: 0.282

QUERY: Then this binder: 370_H09 (antibody, V domains shown) VH: EVQLLESGGGLVQPGGSLRLSCAASGFTFSSYGMNWVRQAPGKGLEWVANINYNGGYTSYADSVKGRFTISRDNSKNTLYLQMNSLRAEDTAVYYCARSANWHDTALDYWGQGTLVTVSS VL: DIQMTQSPSSLSASVGDRVTITCRASQSIVSYVNWYQQKPGKAPKLLIYAATSRASGVPSRFSGSGSGTDFTLTISSLQPEDFATYYCQQSYDNPLTFGGGTKVEIK
RESULT: 0.348
